tested on: MES-SA/Dx5; assay: In vitro cytotoxicity; assay type: cell-based; conditions: MES-SA/Dx5; read-out: IC50
ASSAY ENDPOINT: pIC50
Answers are plain numbers, as −log10 of the molar value.

Item N.N.[Cl][Pt][Cl] [Cisplatin, cisplatin] ; assay system MES-SA/Dx5; pIC50 reported as 4.90

---

tested on: HCT-15; assay: In vitro cytotoxicity (PrestoBlue); assay type: cell-based, human; details: HCT-15, 72 h; read-out: Cytotoxic IC50
ASSAY ENDPOINT: IC50
Quote the value and follow it with the unit of measurement.

IC50 measured on COc1cccc2c1C(=O)c1c(O)c3c(c(O)c1C2=O)C[C@@](O)(C(C)=O)C[C@@H]3O[C@H]1C[C@H]2[C@H](OC3CCCN32)[C@H](C)O1 (stereo partly shown) = 2.42 nM

---

system: MES-SA; assay: In vitro cytotoxicity; assay type: cell-based; conditions: Homo sapiens, presence of 1 μM tariquidar, read-out: IC50 + TQ
ASSAY ENDPOINT: pIC50
Give bare numbers, as −log10 of the molar value.

So for COc1cccc2c1C(=O)c1c(O)c3c(c(O)c1C2=O)C[C@@](O)(C(=O)CO)C[C@@H]3O[C@H]1C[C@H](N)[C@H](O)[C@H](C)O1 [DOX, doxorubicin] , the logged pIC50 turned out to be 7.70

---

system: NCI-60 cell lines; assay: NCI DTP NCI-60 cell line screen database (sulforhodamine B), panel; format: cell-based; details: Homo sapiens, read-out: Cytotoxic IC50, av. prostatic
ASSAY ENDPOINT: pIC50
Numbers only, as −log10 of the molar value.

Hi! Can you tell me pIC50 for each of these molecules?
1. COc1cccc2c1C(=O)c1c(O)c3c(c(O)c1C2=O)C[C@@](O)(C(=O)CO)C[C@@H]3O[C@H]1C[C@H](N)[C@H](O)[C@H](C)O1
2. COc1cccc2c1C(=O)c1c(O)c3c(c(O)c1C2=O)C[C@@](O)(C(C)=O)C[C@@H]3O[C@H]1C[C@H](N)[C@H](O)[C@H](C)O1

6.76
7.04

---

test system: panel of cell lines of various tissue of origin; assay: In vitro cytotoxicity, panel of cell lines (PrestoBlue); format: cell-based, human; conditions: Homo sapiens; average IC50 within the renal group; read-out: Cytotoxic IC50, av. renal
ASSAY ENDPOINT: pIC50
One number for each entry, as −log10 of the molar value.

Looking up COc1cccc2c1C(=O)c1c(O)c3c(c(O)c1C2=O)C[C@@](O)(C(C)=O)C[C@@H]3O[C@H]1C[C@H]2[C@H](OC3CCCN32)[C@H](C)O1 (stereo partly shown) , I see its pIC50 listed as 8.28

---

test system: panel of cell lines of various tissue of origin; assay: In vitro cytotoxicity, panel of cell lines (PrestoBlue); type: cell-based, human; conditions: Homo sapiens; average IC50 within the lung group; read-out: Cytotoxic IC50, av. lung
ASSAY ENDPOINT: pIC50
Numbers only, as −log10 of the molar value.

Summary: COc1cccc2c1C(=O)c1c(O)c3c(c(O)c1C2=O)C[C@@](O)(C(C)=O)C[C@@H]3O[C@H]1C[C@H]2[C@H](OC3CCCN32)[C@H](C)O1 (stereo partly shown) , panel of cell lines of various tissue of origin, pIC50 = 8.38

---

tested on: P388/ADR; test: In vitro cytotoxicity; format: cell-based; details: read-out: IC50
ASSAY ENDPOINT: IC50 (nM)
Give bare numbers, in nM.

Field IC50 (entry N.N.[Cl][Pt][Cl] [Cisplatin, cisplatin] ) reads 1180

---

test system: HL-60(TB); test: In vitro cytotoxicity (PrestoBlue); assay type: cell-based; settings: Homo sapiens, 72 h, read-out: Cytotoxic IC50
ASSAY ENDPOINT: IC50 (pM)
Answers are plain numbers, in pM.

IC50 reading for COc1cccc2c1C(=O)c1c(O)c3c(c(O)c1C2=O)C[C@@](O)(C(C)=O)C[C@@H]3O[C@H]1C[C@H]2[C@H](OC3CCCN32)[C@H](C)O1 (stereo partly shown) : 900

---

system: DU-145; assay: In vitro cytotoxicity (PrestoBlue); assay type: cell-based; settings: Homo sapiens, DU-145, 72 h; read-out: Cytotoxic IC50
ASSAY ENDPOINT: pIC50
Give bare numbers, as −log10 of the molar value.

The molecule COc1cccc2c1C(=O)c1c(O)c3c(c(O)c1C2=O)C[C@@](O)(C(C)=O)C[C@@H]3O[C@H]1C[C@H]2[C@H](OC3CCCN32)[C@H](C)O1 (stereo partly shown) , when measured on DU-145, yielded pIC50 of 8.88

---

test system: MES-SA/Dx5; experiment: In vitro cytotoxicity; format: cell-based; settings: Homo sapiens, MES-SA/Dx5
ASSAY ENDPOINT: IC50
Put down the number, then write its unit next to it.

Entry under test: COc1cccc2c1C(=O)c1c(O)c3c(c(O)c1C2=O)C[C@@](O)(C(C)=O)C[C@@H]3O[C@H]1C[C@H]2[C@H](OC3CCCN32)[C@H](C)O1 (stereo partly shown) . Its IC50 was 2.51 nM

---

system: MES-SA; test: In vitro cytotoxicity; assay type: cell-based; settings: Homo sapiens
ASSAY ENDPOINT: IC50 (nM)
Give bare numbers, in nM.

MES-SA IC50 of COc1cccc2c1C(=O)c1c(O)c3c(c(O)c1C2=O)C[C@@](O)(C(C)=O)C[C@@H]3O[C@H]1C[C@H]2[C@H](OC3CCCN32)[C@H](C)O1 (stereo partly shown) is 1.35

---

system: UO-31; test: In vitro cytotoxicity (PrestoBlue); type: cell-based; details: Homo sapiens, UO-31, 72 h; read-out: Cytotoxic IC50
ASSAY ENDPOINT: IC50 (nM)
Give bare numbers, in nM.

Value (IC50, UO-31) for record COc1cccc2c1C(=O)c1c(O)c3c(c(O)c1C2=O)C[C@@](O)(C(C)=O)C[C@@H]3O[C@H]1C[C@H]2[C@H](OC3CCCN32)[C@H](C)O1 (stereo partly shown) = 1.43

---

Tested on: HCC-2998
Assay: In vitro cytotoxicity (PrestoBlue)
Assay type: cell-based
Conditions: Homo sapiens; HCC-2998, 72 h; read-out: Cytotoxic IC50
From the text: Experiments were repeated at least 3 times.
ASSAY ENDPOINT: pIC50
Give bare numbers, as −log10 of the molar value.

Bench note, HCC-2998: COc1cccc2c1C(=O)c1c(O)c3c(c(O)c1C2=O)C[C@@](O)(C(C)=O)C[C@@H]3O[C@H]1C[C@H]2[C@H](OC3CCCN32)[C@H](C)O1 (stereo partly shown) [PyDau, 2-deamino-2-pyrrolino-daunorubicin] , pIC50 reads 8.09

---

tested on: BT-549; assay: In vitro cytotoxicity (PrestoBlue); details: Homo sapiens, BT-549, 72 h, read-out: Cytotoxic IC50
ASSAY ENDPOINT: pIC50
Give bare numbers, as −log10 of the molar value.

Here COc1cccc2c1C(=O)c1c(O)c3c(c(O)c1C2=O)C[C@@](O)(C(C)=O)C[C@@H]3O[C@H]1C[C@H]2[C@H](OC3CCCN32)[C@H](C)O1 (stereo partly shown) [PyDau, 2-deamino-2-pyrrolino-daunorubicin] was tested on BT-549, and its pIC50 came to 8.33

---

tested on: CCRF-CEM; test: In vitro cytotoxicity (PrestoBlue); assay type: cell-based; conditions: Homo sapiens, 72 h, read-out: Cytotoxic IC50
ASSAY ENDPOINT: pIC50
One number for each entry, as −log10 of the molar value.

The compound COc1cccc2c1C(=O)c1c(O)c3c(c(O)c1C2=O)C[C@@](O)(C(C)=O)C[C@@H]3O[C@H]1C[C@H]2[C@H](OC3CCCN32)[C@H](C)O1 (stereo partly shown) showed pIC50 equal to 9.64
